Reported TGI values for a set of compounds
System: K-562 leukemia
Assay method text: NCI tumour cell line growth inhibition, 48 h
Reported endpoint: TGI

- Cc1ccc2c(/C=C/C(=O)c3cc(CN4CCOCC4)c(O)c4nc(C)ccc34)cc(CN3CCOCC3)c(O)c2n1: 17.1 µM
- COc1ccc(/C=C/C(=N/NC(=O)N/N=C(/C=C/c2ccc(OC)cc2)C(C)C)C(C)C)cc1: > 100 µM
- CCOC(=O)NC(Nc1cccc(F)c1)(C(F)(F)F)C(F)(F)F: > 100 µM
- COc1ccc2c(c1OC)C(Br)CCC(Br)(Br)C2=O (centres undefined): 11.6 µM
- CCC(C)C1=C(O)[N+]2([O-])Oc3ccc(-c4c(O)c(O)c(-c5ccc(O)cc5)c(OC(C)=O)c4OC(C)=O)cc3OC2(C(C)CC)C(=O)N1O (centres undefined): > 50 µM
- CCOC(=O)C(C)c1nc2cc(F)c(N3CCOCC3)cc2[nH]c1=O (centres undefined): > 100 µM
- c1ccc(Oc2c3ccccc3nc3ccccc23)cc1: 24.7 µM
- COc1ccc(/C=C/C(=O)/C=C(/C=C/c2ccc(OC)c(OC)c2)OB(F)F)cc1OC: > 100 µM
- COC(=O)/N=[N+](\[O-])C(c1ccc(Cl)cc1)c1ccc(Cl)cc1: > 100 µM
